# ASSAY PROTOCOL: pharmacokinetics (half-life)
# CONDITIONS: rat, in vivo; "in rats" printed for the active metabolite (II) only; read-out: t½ (converted)
READOUT: half-life (h)

P: CC(=O)Nc1ccc(C2=NNC(=O)C[C@H]2C)cc1 [active metabolite (II)]
Q: CC1CC(=O)NN=C1c1ccc(NN=C(C#N)C#N)cc1 (single isomer, unassigned) [Levosimendan]
Task: Smaller half-life value? Options are P and Q Label of pick, please.
Result: Q
